Provide the recorded pKd for the entries that follow.
# STUDY_TARGET: MAGI1_5, Q96QZ7
# Sequence (Q96QZ7 986-1098): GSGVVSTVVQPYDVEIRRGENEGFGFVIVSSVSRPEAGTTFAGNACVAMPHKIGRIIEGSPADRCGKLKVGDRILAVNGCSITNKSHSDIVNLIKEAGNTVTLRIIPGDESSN
# ASSAY_EXPLANATION: holdup assay
# Set-up: key: below the threshold = too weak to quantify, mostly under pKd 3.1 to 4
# APPLIED_CONDITIONS: plain residues with an end cap or a label only (N-terminal biotin on a linker: ttds)
The answer should be a number; do not append a unit.

Task item: Data request, read-out pKd, for SVWLRKETRV [CYSLTR2, Q9NS75]
Reply: 4.57

Task item: Data request, read-out pKd, for SSRTRRETQL [HPV16-E6, P03126]
Reply: 4.69

Task item: Data request, read-out pKd, for SRPQRTQTQV [HPV67-E6, A4U7F2]
Reply: 4.35

Task item: Data request, read-out pKd, for STLTIFETAL [ABCC4, O15439]
Reply: 5.11
